Attribution: patent US7256201B2

# TARGET: human recombinant ERα (Homo sapiens, UniProt P03372)
# Sequence (P03372 whole entry): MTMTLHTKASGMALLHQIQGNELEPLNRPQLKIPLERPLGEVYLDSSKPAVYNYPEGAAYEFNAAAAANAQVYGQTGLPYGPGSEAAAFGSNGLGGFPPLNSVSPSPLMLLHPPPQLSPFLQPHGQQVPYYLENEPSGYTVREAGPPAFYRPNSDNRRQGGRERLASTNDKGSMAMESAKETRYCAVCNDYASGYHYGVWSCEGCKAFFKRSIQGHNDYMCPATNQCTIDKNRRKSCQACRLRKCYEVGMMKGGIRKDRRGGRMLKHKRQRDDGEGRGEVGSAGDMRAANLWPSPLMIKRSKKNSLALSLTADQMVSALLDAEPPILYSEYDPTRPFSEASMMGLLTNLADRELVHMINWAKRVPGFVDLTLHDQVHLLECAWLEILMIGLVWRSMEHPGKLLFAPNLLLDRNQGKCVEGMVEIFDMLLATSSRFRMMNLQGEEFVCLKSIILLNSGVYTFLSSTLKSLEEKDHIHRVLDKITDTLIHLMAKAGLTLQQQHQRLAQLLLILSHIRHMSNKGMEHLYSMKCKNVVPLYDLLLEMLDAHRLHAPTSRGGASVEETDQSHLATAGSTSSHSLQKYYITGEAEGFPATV
# PROTOCOL NOTES: Fluorescence polarization estrogen receptor (ERFP) binding assay, ERα
# EXPERIMENTAL CONTEXT: competition with Fluormone ES2; IC50 converted to Ki by Kenakin formula; read-out: FP α-ER Ki
The threshold is 60 nM. Values of Ki beneath it are tagged YES; values meeting or exceeding it are tagged NO.

Illustrative cases are given below, each with its answer.
Cc1ccccc1C1c2ccc(O)cc2CCN1c1ccc(O)cc1 (stereo not shown) [Example 12] :: YES
CC1c2ccc(O)cc2CCN1c1ccc(O)cc1 (stereo not shown) [Example 14] :: NO
Oc1ccc(N2CCc3cc(O)ccc3C2)cc1 [Example 1] :: NO
Oc1ccc2c(c1)CCN(c1ccc(Cl)cc1Cl)C2 [Example 13] :: YES
COc1ccc([N+](=O)[O-])cc1N1CCc2cc(O)ccc2C1 [Example 4] :: NO
Oc1ccc(N2CCc3cc(O)ccc3C2Cc2ccccc2)cc1 (stereo not shown) [Example 16] :: YES
Cc1ccc(C2c3ccc(O)cc3CCN2c2ccc(O)cc2)c(C)c1 (stereo not shown) [Example 7] :: NO

Next item in the queue.
Exam item: Is Ki strictly under 60 nM for the entry O=C(c1ccc(O)cc1)N1CCc2cc(O)ccc2C1 [Example 23] ?
Marked response: NO

====

# TARGET: βER (Homo sapiens, UniProt Q92731)
# Sequence (Q92731 54-530 limits assumed): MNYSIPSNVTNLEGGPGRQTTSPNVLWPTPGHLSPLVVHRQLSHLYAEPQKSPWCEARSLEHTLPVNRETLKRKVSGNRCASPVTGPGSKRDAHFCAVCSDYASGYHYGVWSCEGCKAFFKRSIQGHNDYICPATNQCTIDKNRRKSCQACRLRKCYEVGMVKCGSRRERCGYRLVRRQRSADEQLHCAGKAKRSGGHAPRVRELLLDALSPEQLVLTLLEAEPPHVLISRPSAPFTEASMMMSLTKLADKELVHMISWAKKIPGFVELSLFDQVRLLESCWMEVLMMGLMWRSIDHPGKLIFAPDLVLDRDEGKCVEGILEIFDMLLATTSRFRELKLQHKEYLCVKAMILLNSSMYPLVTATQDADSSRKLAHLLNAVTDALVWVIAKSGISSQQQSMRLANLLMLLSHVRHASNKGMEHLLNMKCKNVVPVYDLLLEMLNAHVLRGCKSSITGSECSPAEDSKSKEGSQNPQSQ
# PROTOCOL NOTES: Cell-based assay for ER transcriptional activity (ERE β-gal reporter), βER-transfected 293 cells
# EXPERIMENTAL CONTEXT: 293 cells transfected with βER and ERE reporter
In this section, each of the compounds is paired with its reported EC50.
Note: unit nM is implicit; provide only the numeric part.

CCC1c2ccc(O)cc2CCN1c1ccc(O)cc1 (centres unmarked) :: 23
CC1c2ccc(O)cc2CCN1c1cccc(O)c1 (centres unmarked) :: 49
CC1c2ccc(O)cc2CCN1c1ccc(O)cc1 (centres unmarked) :: 143

Exam item: Param item = `Cc1cc(O)ccc1N1CCc2cc(O)ccc2C1` ; retrieve measured EC50.
Marked response: 35.7

Exam item: Param item = Oc1ccc(N2CCc3cc(O)ccc3C2c2ccccc2)cc1 (centres unmarked) ; retrieve measured EC50.
Marked response: 7.6

Exam item: Param item = Oc1ccc(N2Cc3ccc(O)cc3C2)cc1 [Example 25, 5-Hydroxy-2-(4-hydroxyphenyl)isoindoline] ; retrieve measured EC50.
Marked response: 161

Exam item: Param item = CCC1c2ccc(O)cc2CCN1c1ccc(O)c(Cl)c1 (centres unmarked) ; retrieve measured EC50.
Marked response: 209

Exam item: Param item = Cc1ccc(N2CCc3cc(O)ccc3C2c2ccoc2)cc1O (centres unmarked) ; retrieve measured EC50.
Marked response: 0.7

Exam item: Param item = Cc1ccc(O)cc1N1CCc2cc(O)ccc2C1C (centres unmarked) ; retrieve measured EC50.
Marked response: 6.1

Exam item: Param item = CCC1c2cc(O)ccc2CN1c1ccc(O)cc1 (centres unmarked) ; retrieve measured EC50.
Marked response: 79

Exam item: Param item = Cc1ccc(N2CCc3cc(O)ccc3C2c2ccccc2)cc1O (centres unmarked) ; retrieve measured EC50.
Marked response: 0.4

====

# TARGET: human recombinant ERβ (Homo sapiens, UniProt Q92731)
# Construct: purchased PanVera (Madison, Wis.)
# Sequence (Q92731 whole entry): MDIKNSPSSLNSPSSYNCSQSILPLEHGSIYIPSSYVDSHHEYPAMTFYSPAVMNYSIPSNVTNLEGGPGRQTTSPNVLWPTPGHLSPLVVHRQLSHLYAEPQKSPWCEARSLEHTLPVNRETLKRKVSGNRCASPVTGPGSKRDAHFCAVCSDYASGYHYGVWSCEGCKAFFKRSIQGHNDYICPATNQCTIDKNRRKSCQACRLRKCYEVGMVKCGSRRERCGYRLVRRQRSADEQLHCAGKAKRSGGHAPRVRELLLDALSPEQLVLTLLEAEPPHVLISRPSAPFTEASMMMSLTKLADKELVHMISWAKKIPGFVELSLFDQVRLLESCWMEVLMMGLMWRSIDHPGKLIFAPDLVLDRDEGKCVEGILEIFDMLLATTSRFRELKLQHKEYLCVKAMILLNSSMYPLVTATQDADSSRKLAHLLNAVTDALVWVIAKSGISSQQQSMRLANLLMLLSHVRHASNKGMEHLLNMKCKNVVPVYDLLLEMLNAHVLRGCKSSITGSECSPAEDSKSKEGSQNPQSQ
# PROTOCOL NOTES: Fluorescence polarization estrogen receptor (ERFP) binding assay, ERβ
# EXPERIMENTAL CONTEXT: ratio α-ER Ki / β-ER Ki
Consider the reported FP Selectivity of an entry and match it to a band in lower range (below 2), middle range (2 to below 3), upper range (3 or more)

Illustrative cases are given below, each with its answer.
Oc1ccc(N2CCc3cc(O)ccc3C2)c(Cl)c1 [Example 2] :: middle range
CCC1c2cc(O)ccc2CN1c1ccc(O)cc1 (stereo not shown) [Example 26] :: lower range

Next item in the queue.
Exam item: State the class of the compound shown: Cc1ccc(C2c3ccc(O)cc3CCN2c2ccc(O)cc2)c(C)c1 (stereo not shown) [Example 7]
Marked response: lower range

====

# TARGET: human recombinant ERβ (Homo sapiens)
# Construct: purchased PanVera (Madison, Wis.)
# PROTOCOL NOTES: Fluorescence polarization estrogen receptor (ERFP) binding assay, ERβ
# EXPERIMENTAL CONTEXT: ratio α-ER Ki / β-ER Ki
The threshold is 6. Values of FP Selectivity beneath it are tagged rule met; values meeting or exceeding it are tagged rule not met.

Illustrative cases are given below, each with its answer.
CC1c2ccc(O)cc2CCN1c1ccc(O)cc1 (stereo not shown) :: rule not met
Oc1ccc(N2CCc3cc(O)ccc3C2Cc2ccccc2)cc1 (stereo not shown) :: rule met
Oc1ccc2c(c1)CCN(c1ccc(Cl)cc1Cl)C2 :: rule met
Cc1cc(O)ccc1N1CCc2cc(O)ccc2C1 :: rule not met
O=[N+]([O-])c1cc(O)ccc1N1CCc2cc(O)ccc2C1 :: rule met

Exam item: Is FP Selectivity strictly under 6 for the entry CC1c2ccc(O)cc2CCN1c1cccc(O)c1 (stereo not shown) ?
Marked response: rule met

====

# TARGET: human recombinant ERβ (Homo sapiens)
# PROTOCOL NOTES: Fluorescence polarization estrogen receptor (ERFP) binding assay, ERβ
# EXPERIMENTAL CONTEXT: competition with Fluormone ES2; IC50 converted to Ki by Kenakin formula; read-out: FP β-ER Ki
In this section, each of the compounds is paired with its reported pKi.
Lab note: report pKi as minus log10 of the concentration in molar units, number only.

Use these answered entries as a reference point.
Oc1ccc(N2CCc3cc(O)ccc3C2c2ccc(Cl)cc2Cl)cc1 (stereo not drawn) [Example 10] :: 8.15
CCC1c2cc(O)ccc2CN1c1ccc(O)cc1 (stereo not drawn) [Example 26] :: 6.80
Cc1ccc(C2c3ccc(O)cc3CCN2c2ccc(O)cc2)c(C)c1 (stereo not drawn) [Example 7] :: 7.46

Exam item: Param item = O=C(c1ccc(O)cc1)N1CCc2ccc(O)cc2C1 [Example 24] ; retrieve measured pKi.
Marked response: 6.67

Exam item: Param item = Oc1ccc(N2CCc3cc(O)ccc3C2)c(Cl)c1 [Example 2] ; retrieve measured pKi.
Marked response: 7.74

Exam item: Param item = CCC1c2ccc(O)cc2CCN1c1ccc(O)c(Cl)c1 (stereo not drawn) [Example 19] ; retrieve measured pKi.
Marked response: 7.61

Exam item: Param item = O=[N+]([O-])c1cc(O)ccc1N1CCc2cc(O)ccc2C1 [Example 5] ; retrieve measured pKi.
Marked response: 7.89

Exam item: Param item = Oc1ccc(N2CCc3cc(O)ccc3C2c2ccc(C(F)(F)F)cc2)cc1 (stereo not drawn) [Example 9] ; retrieve measured pKi.
Marked response: 8.31

Exam item: Param item = Oc1ccc(N2Cc3ccc(O)cc3C2)cc1 [Example 25, 5-Hydroxy-2-(4-hydroxyphenyl)isoindoline] ; retrieve measured pKi.
Marked response: 7.26

====

In this section, each of the compounds is paired with its reported pKi.
# TARGET: human recombinant ERα (Homo sapiens, UniProt P03372)
# PROTOCOL NOTES: Fluorescence polarization estrogen receptor (ERFP) binding assay, ERα
# EXPERIMENTAL CONTEXT: competition with Fluormone ES2; IC50 converted to Ki by Kenakin formula; read-out: FP α-ER Ki
Lab note: report pKi as minus log10 of the concentration in molar units, number only.

CC1c2ccc(O)cc2CCN1c1cccc(O)c1 (stereo not drawn) [Example 17] :: 6.96
O=[N+]([O-])c1cc(O)ccc1N1CCc2cc(O)ccc2C1 [Example 5] :: 7.21
Oc1ccc(N2CCc3cc(O)ccc3C2c2ccc(Cl)cc2Cl)cc1 (stereo not drawn) [Example 10] :: 7.96
O=C(c1ccc(O)cc1)N1CCc2ccc(O)cc2C1 [Example 24] :: 6.18
Oc1ccc(N2CCc3cc(O)ccc3C2c2ccc(C(F)(F)F)cc2)cc1 (stereo not drawn) [Example 9] :: 8.10
Cc1ccc(N2CCc3cc(O)ccc3C2c2ccccc2)cc1O (stereo not drawn) [Example 20] :: 8.52

Exam item: Param item = CCC1c2cc(O)ccc2CN1c1ccc(O)cc1 (stereo not drawn) [Example 26] ; retrieve measured pKi.
Marked response: 6.70

Exam item: Param item = CSc1ccc(C2c3ccc(O)cc3CCN2c2ccc(O)cc2)cc1 (stereo not drawn) [Example 8] ; retrieve measured pKi.
Marked response: 7.74

Exam item: Param item = Oc1ccc(N2Cc3ccc(O)cc3C2)cc1 [Example 25, 5-Hydroxy-2-(4-hydroxyphenyl)isoindoline] ; retrieve measured pKi.
Marked response: 6.72

====

In this section, each of the compounds is paired with its reported EC50.
# TARGET: αER (Homo sapiens)
# Sequence (P03372 whole entry): as the sequence (P03372 whole entry) above
# PROTOCOL NOTES: Cell-based assay for ER transcriptional activity (ERE β-gal reporter), αER-transfected 293 cells
# EXPERIMENTAL CONTEXT: 293 cells transfected with αER and ERE reporter; read-out: ERE α-ER EC50
# Method: ERs are ligand-dependent transcription factors that bind the promoter regions of genes at a consensus DNA sequence called the estrogen responsive element (ERE). The ER agonist or antagonist activity of a drug was determined by measuring the amount of reporter enzyme activity expressed from a plasmid under the control of an estrogen-responsive element when cells transiently transfected with ER and the reporter plasmid were exposed to drug. […]
Note: unit nM is implicit; provide only the numeric part.

Use these answered entries as a reference point.
CCC1c2ccc(O)cc2CCN1c1ccc(O)c(Cl)c1 (stereo not drawn) :: 16.8
Cc1cc(O)ccc1N1CCc2cc(O)ccc2C1 :: 28.2
CC1c2ccc(O)cc2CCN1c1ccc(O)cc1 (stereo not drawn) :: 1000
Cc1ccc(O)cc1N1CCc2cc(O)ccc2C1C (stereo not drawn) :: 24.6
Oc1ccc(N2CCc3cc(O)ccc3C2c2ccccc2)cc1 (stereo not drawn) :: 0.6

Exam item: Param item = Cc1ccc(N2CCc3cc(O)ccc3C2c2ccoc2)cc1O (stereo not drawn) ; retrieve measured EC50.
Marked response: 0.8
